Target: T1, monkey CD3ε/δ-His (monkey, UniProt Q95LI5 22-117; Q95LI8 22-105)
T1 construct: Bought recombinant heterodimer with His tag
T1 sequence (Q95LI5 22-117, stated change not applied, form in doubt, chain 1 of 2): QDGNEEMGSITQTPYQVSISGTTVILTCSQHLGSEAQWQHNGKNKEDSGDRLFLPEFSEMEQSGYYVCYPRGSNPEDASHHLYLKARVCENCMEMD
T1 sequence (Q95LI8 22-105, stated change not applied, form in doubt, chain 2 of 2): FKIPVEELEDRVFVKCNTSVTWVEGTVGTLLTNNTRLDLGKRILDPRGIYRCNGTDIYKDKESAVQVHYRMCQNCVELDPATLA
Assay: ELISA, coated antigen, hybridoma screening
endpoint_label: OD450 (OD450)
Your answer is read as OD450, so omit the unit and give the number.

For orientation, consider the following solved cases.
6-44.5 murine hybridoma antibody (supernatant) (antibody, V domains shown, Tested as hybridoma supernatant) VH: EVQLQQSGPELVKPGASVKMSCKASGHTFTSHIMHWVKQKPGQGLEWIGYINPNNDRTEYSEKFKGKATLTSDKSSSTAYMELSSLTSEDSAVYYCAGEAYYSNSLYAMDYWGQGTSVTVSS VL: DIVMSQSPSSLAVSAGEKVTMSCKSSQSLFNSRTRKNYLAWYQQKPGQSPELLIYWASTRESGVPVRFTGSGSGTDFTLTISSVQAEDLAVYYCKQSYYLRTFGGGTKLEVK ... 1.94
1-22.6 murine hybridoma antibody (supernatant) (antibody, V domains shown, Tested as hybridoma supernatant) VH: QIPLVQSGPELKKPGETVKISCKTSGYTFTSYGMSWVKQAPGKGLKWMGWINTYSGVPTYADDFKGRFVFSLDTSASTAFLQINNLKNEDTATYFCARLKNNPFCWGQGSTLTVFS VL: DVLMTQSPLSLPVRLGDQASISCRSSQLILHSNGNTYLEWYLQKPGQSPKLLIYKVSNRFSGVPDRFSGSGSGTDFTLKISRVEAEDLGVYYCFQGSHFPWTFGGGTKLEIK ... 3.08

// query I would be grateful if you could share the reported OD450 for 5-7.13 murine hybridoma antibody (supernatant) (antibody, V domains shown, Tested as hybridoma supernatant) VH: QVQLQQPGTELVKPGASVKLSCKASGYTFTSYWVHWVKQRPGQGLEWIGNINPSDGVTNYNEKFKSRATLTVDKSSSTAYMQLSSLTSEDSAVYYCTRDAYGQYYFDDWGQGTTLTVSS VL: DIVMSQSPSSLVVSAGEKVTMSCKSSQSLLNSRTRKNYLAWYQQKPGQSPKLLIYWASVRDSGVPDRFTGSGSGTDFTLTISNVQAEDLAVYYCIQSYYLRTFGGGTILEIK .
// result 2.09
